system: 817829-284-R-J1-PDC complex spheroid viability; assay: Anticancer human tumor 817829-284-R-J1-PDC patient-derived colon adenocarcinoma cell line growth inhibition [POLQ]; settings: second compound 0.0316 µM; first compound 3.16 µM; active = viability on the fitted dose curve at most 10% of control; inactive = the rest
Can you answer with just one of these options? active, inactive

// known answers, use as guide
• COc1cc(C2c3cc4c(cc3C(OC3OC5COC(C)OC5C(O)C3O)C3COC(=O)C23)OCO4)cc(OC)c1O (stereo not given) + COC1C(OC(N)=O)C(O)C(Oc2ccc3c(O)c(NC(=O)c4ccc(O)c(CC=C(C)C)c4)c(=O)oc3c2C)OC1(C)C = active
• CCc1cc2c(N3CCc4c(cc(Cn5ccnc5)cc4-c4cn(C)nc4C(F)(F)F)C3=O)ccnc2c(OC)n1 + COC1C(OC(N)=O)C(O)C(Oc2ccc3c(O)c(NC(=O)c4ccc(O)c(CC=C(C)C)c4)c(=O)oc3c2C)OC1(C)C = inactive
• COc1cccc2c1C(=O)c1c(O)c3c(c(O)c1C2=O)CC(O)(C(=O)CO)CC3OC1CC(N)C(O)C(C)O1 (stereo not given) + Cc1cccc(N(C)C(=O)C2C(O)CCN2c2nc(C)cc(C(F)(F)F)c2C#N)c1 = active
• CNCc1ccc(-c2[nH]c3cc(F)cc4c3c2CCNC4=O)cc1 + Nc1ccc(C#CCN(C(=O)Cc2ncc(C(F)(F)F)cc2C(F)(F)F)c2ccc(F)cc2)nn1 = inactive

Identify the outcome logged in this assay for the compound shown: CC1COCCN1c1cc(C2(O)CC3CCC(C2)O3)c2cnn(-c3ccn[nH]3)c2n1 (stereo not given) + Nc1ccc(C#CCN(C(=O)Cc2ncc(C(F)(F)F)cc2C(F)(F)F)c2ccc(F)cc2)nn1
active

Identify the outcome logged in this assay for the compound shown: O=C(c1cc(Cc2n[nH]c(=O)c3ccccc23)ccc1F)N1CCN(C(=O)C2CC2)CC1 + Cc1cccc(N(C)C(=O)C2C(O)CCN2c2nc(C)cc(C(F)(F)F)c2C#N)c1
inactive

Identify the outcome logged in this assay for the compound shown: CCc1cc2c(N3CCc4c(cc(Cn5ccnc5)cc4-c4cn(C)nc4C(F)(F)F)C3=O)ccnc2c(OC)n1 + Nc1ccc(C#CCN(C(=O)Cc2ncc(C(F)(F)F)cc2C(F)(F)F)c2ccc(F)cc2)nn1
inactive

Identify the outcome logged in this assay for the compound shown: COc1ccc([C@@H](O)c2cc(-c3ncnc4cc(N5CCOCC5)ccc34)c(F)cc2Cl)nn1 + Cc1cccc(N(C)C(=O)C2C(O)CCN2c2nc(C)cc(C(F)(F)F)c2C#N)c1
inactive

Identify the outcome logged in this assay for the compound shown: O=C(Nc1ccc(O)c(NS(=O)(=O)c2ccc(F)cc2)c1)c1ccc(-c2ccccc2)cc1 + COC1C(OC(N)=O)C(O)C(Oc2ccc3c(O)c(NC(=O)c4ccc(O)c(CC=C(C)C)c4)c(=O)oc3c2C)OC1(C)C
inactive

Identify the outcome logged in this assay for the compound shown: COc1cc(C2c3cc4c(cc3C(OC3OC5COC(C)OC5C(O)C3O)C3COC(=O)C23)OCO4)cc(OC)c1O (stereo not given) + Cc1cccc(N(C)C(=O)C2C(O)CCN2c2nc(C)cc(C(F)(F)F)c2C#N)c1
inactive

---

test system: 817829-284-R-J1-PDC complex spheroid viability; assay: Anticancer human tumor 817829-284-R-J1-PDC cell line growth inhibition [POLQ]; conditions: second compound 1 µM; first compound 0.316 µM; active compounds read low;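 also: spheroids exposed to compounds for 7 days; 100% = DMSO vehicle-treated spheroids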
test-readout: viability, T/C (%)
Hi! Could you send only the number? It should be in %, unit omitted.

* CCCS(=O)(=O)Nc1ccc(F)c(C(=O)c2c[nH]c3ncc(-c4ccc(Cl)cc4)cc23)c1F + COC1C(OC(N)=O)C(O)C(Oc2ccc3c(O)c(NC(=O)c4ccc(O)c(CC=C(C)C)c4)c(=O)oc3c2C)OC1(C)C | 48.5

Now take the following compound into account.
For the compound COc1cc(C2c3cc4c(cc3C(OC3OC5COC(C)OC5C(O)C3O)C3COC(=O)C23)OCO4)cc(OC)c1O (configuration not stated) + COC1C(OC(N)=O)C(O)C(Oc2ccc3c(O)c(NC(=O)c4ccc(O)c(CC=C(C)C)c4)c(=O)oc3c2C)OC1(C)C , what viability, T/C is on record?
15.8

---

tested on: 817829-284-R-J1-PDC complex spheroid viability; assay: Anticancer human tumor 817829-284-R-J1-PDC cell line growth inhibition [POLQ]; conditions: second compound 0.1 µM; first compound 0.316 µM; active compounds read low;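 also: spheroids exposed to compounds for 7 days; 100% = DMSO vehicle-treated spheroids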
So basically, the class depends on measured viability, T/C, and the ranges are low-valued: < 60%; mid-valued: ≥ 60% and < 80%; high-valued: ≥ 80%

• Nc1ccn(C2OC(CO)C(O)C2(F)F)c(=O)n1 (stereo not given) + Cc1cccc(N(C)C(=O)C2C(O)CCN2c2nc(C)cc(C(F)(F)F)c2C#N)c1 = low-valued
• O=C(Nc1ccc(O)c(NS(=O)(=O)c2ccc(F)cc2)c1)c1ccc(-c2ccccc2)cc1 + Nc1ccc(C#CCN(C(=O)Cc2ncc(C(F)(F)F)cc2C(F)(F)F)c2ccc(F)cc2)nn1 = high-valued
• CNCc1ccc(-c2[nH]c3cc(F)cc4c3c2CCNC4=O)cc1 + Nc1ccc(C#CCN(C(=O)Cc2ncc(C(F)(F)F)cc2C(F)(F)F)c2ccc(F)cc2)nn1 = high-valued
• O=C(c1cc(Cc2n[nH]c(=O)c3ccccc23)ccc1F)N1CCN(C(=O)C2CC2)CC1 + COC1C(OC(N)=O)C(O)C(Oc2ccc3c(O)c(NC(=O)c4ccc(O)c(CC=C(C)C)c4)c(=O)oc3c2C)OC1(C)C = high-valued
• O=C(Nc1ccc(O)c(NS(=O)(=O)c2ccc(F)cc2)c1)c1ccc(-c2ccccc2)cc1 + Cc1cccc(N(C)C(=O)C2C(O)CCN2c2nc(C)cc(C(F)(F)F)c2C#N)c1 = high-valued

Place this molecule in its band: COc1ccc([C@@H](O)c2cc(-c3ncnc4cc(N5CCOCC5)ccc34)c(F)cc2Cl)nn1 + Nc1ccc(C#CCN(C(=O)Cc2ncc(C(F)(F)F)cc2C(F)(F)F)c2ccc(F)cc2)nn1
mid-valued

Place this molecule in its band: CC(C)n1c(=O)n(C)c2cnc3cc(F)c(-c4ccc(OCCCN5CCCCC5)nc4)cc3c21 + COC1C(OC(N)=O)C(O)C(Oc2ccc3c(O)c(NC(=O)c4ccc(O)c(CC=C(C)C)c4)c(=O)oc3c2C)OC1(C)C
high-valued

Place this molecule in its band: CCc1cc2c(N3CCc4c(cc(Cn5ccnc5)cc4-c4cn(C)nc4C(F)(F)F)C3=O)cc(C)nc2c(OC)n1 + Cc1cccc(N(C)C(=O)C2C(O)CCN2c2nc(C)cc(C(F)(F)F)c2C#N)c1
mid-valued

Place this molecule in its band: O=c1[nH]cc(F)c(=O)[nH]1 + Nc1ccc(C#CCN(C(=O)Cc2ncc(C(F)(F)F)cc2C(F)(F)F)c2ccc(F)cc2)nn1
high-valued

Place this molecule in its band: CCc1cc2c(N3CCc4c(cc(Cn5ccnc5)cc4-c4cn(C)nc4C(F)(F)F)C3=O)ccnc2c(OC)n1 + Cc1cccc(N(C)C(=O)C2C(O)CCN2c2nc(C)cc(C(F)(F)F)c2C#N)c1
mid-valued

Place this molecule in its band: CCc1c2c(nc3ccc(O)cc13)-c1cc3c(c(=O)n1C2)COC(=O)[C@]3(O)CC + COC1C(OC(N)=O)C(O)C(Oc2ccc3c(O)c(NC(=O)c4ccc(O)c(CC=C(C)C)c4)c(=O)oc3c2C)OC1(C)C
low-valued

---

tested on: 817829-284-R-J1-PDC complex spheroid viability; experiment: Anticancer human tumor 817829-284-R-J1-PDC cell line growth inhibition [POLQ]; settings: second compound 10 µM; first compound 0.316 µM; active compounds read low;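 also: spheroids exposed to compounds for 7 days; 100% = DMSO vehicle-treated spheroids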
test-readout: viability, T/C (%)
Hi! Could you send only the number? It should be in %, unit omitted.

- COc1cc2cc(C(=O)CCC(=O)O)sc2cc1OC + Nc1ccc(C#CCN(C(=O)Cc2ncc(C(F)(F)F)cc2C(F)(F)F)c2ccc(F)cc2)nn1: 98.1
- COc1cc(C2c3cc4c(cc3C(OC3OC5COC(C)OC5C(O)C3O)C3COC(=O)C23)OCO4)cc(OC)c1O (stereo not given) + Cc1cccc(N(C)C(=O)C2C(O)CCN2c2nc(C)cc(C(F)(F)F)c2C#N)c1: 22.6
- CCc1cc2c(N3CCc4c(cc(Cn5ccnc5)cc4-c4cn(C)nc4C(F)(F)F)C3=O)ccnc2c(OC)n1 + COC1C(OC(N)=O)C(O)C(Oc2ccc3c(O)c(NC(=O)c4ccc(O)c(CC=C(C)C)c4)c(=O)oc3c2C)OC1(C)C: 75.2
- CC1COCCN1c1cc(C2(O)CC3CCC(C2)O3)c2cnn(-c3ccn[nH]3)c2n1 (stereo not given) + COC1C(OC(N)=O)C(O)C(Oc2ccc3c(O)c(NC(=O)c4ccc(O)c(CC=C(C)C)c4)c(=O)oc3c2C)OC1(C)C: 5.03
- COc1cccc(OCCCN)c1-c1cc(Nc2cnc(C#N)cn2)n[nH]1 + Cc1cccc(N(C)C(=O)C2C(O)CCN2c2nc(C)cc(C(F)(F)F)c2C#N)c1: 4.34

For the compound C#Cc1c(F)ccc2cc(O)cc(-c3ncc4c(N5CC6CCC(C5)N6)nc(OCC56CCCN5CC(F)C6)nc4c3F)c12 (stereo not given) + COC1C(OC(N)=O)C(O)C(Oc2ccc3c(O)c(NC(=O)c4ccc(O)c(CC=C(C)C)c4)c(=O)oc3c2C)OC1(C)C , what viability, T/C is on record?
144

For the compound O=c1[nH]cc(F)c(=O)[nH]1 + Cc1cccc(N(C)C(=O)C2C(O)CCN2c2nc(C)cc(C(F)(F)F)c2C#N)c1 , what viability, T/C is on record?
94.1
